system: NCI-H460 lung; assay: NCI-60 one-dose screen, 48 h; settings: 10 µM unless noted
About 83,000 compounds went through this panel and 20% of them were active in at least one assay; those are over-represented in the sample as a whole. The source made the active and inactive calls. Rule for the calls: active = growth percent below 10; inactive = the rest.
Classes used: active, inactive

{"columns": ["Molecule", "Assigned label"],
 "data": [
  ["O=S(=O)(Nc1ccc(Br)c(Cl)c1)c1ccc(-c2cnc(C3CC3)o2)cc1", "inactive"],
  ["O=C(CN(C(=O)Cn1c(=O)n2nnnc2c2ccccc21)c1ccccc1C(F)(F)F)Nc1ccc(C(F)(F)F)cc1", "inactive"],
  ["CCCc1cc(=O)n2c(C(=O)Nc3cccc(C(=O)OCC)c3)c(C(=O)Nc3ccc(F)cc3)sc2n1", "inactive"],
  ["CSc1nc(-c2cccc(NC(=O)CCl)c2)c(C#N)c(=O)n1C", "inactive"],
  ["COc1ccccc1NS(=O)(=O)c1ccc2oc(SC(C)C)nc2c1", "inactive"],
  ["COc1ccc(-c2nc3ccc(-c4nc5ccc(N6CCN(c7ccc(F)cc7)CC6)cc5[nH]4)cc3[nH]2)cc1OC", "inactive"],
  ["CC(=O)O[C@H]1C(=O)[C@@]2(C)[C@H]([C@H](OC(=O)c3ccccc3)[C@]3(O)C[C@H](OC(=O)[C@H](OC(=O)CCC(=O)OC4CCC(S/N=C(N)/N=C(\\N)N(C)C)CC4)[C@@H](NC(=O)c4ccccc4)c4ccccc4)C(C)=C1C3(C)C)[C@]1(OC(C)=O)CO[C@@H]1C[C@@H]2O (stereo partly drawn)", "active"],
  ["CCN(CC)c1ccc(-c2cc(-c3cc(OC)c(OC)c(OC)c3)nc(N3CCOCC3)c2C#N)cc1", "active"],
  ["Cn1c(O)c(N=NC(=O)c2cc(-c3ccccc3)on2)c2ccccc21", "inactive"],
  ["O=C1/C(=C/c2ccccc2O)N=C2SCCCN12", "inactive"],
  ["Cc1ccc(-c2onc3c(=O)[nH]nc(-c4ccccc4)c23)cc1", "inactive"],
  ["Cc1ccc2c(C(C[N+](=O)[O-])c3ccccc3F)c(-c3ccccc3)[nH]c2c1 (stereo not drawn)", "inactive"],
  ["NC1=C(Cl)C(=O)c2ccc(S(N)(=O)=O)cc2C1=O", "active"],
  ["CCn1c(O)c(/C=N/NC(=O)C(C)c2ccc(CC(C)C)cc2)sc1=S (stereo not drawn)", "active"],
  ["COc1ccc(Nc2nc(SC)nc(-c3cccc([N+](=O)[O-])c3)c2C#N)cc1", "inactive"],
  ["CC(=O)NCC1c2c(n(C)c3c(Cl)c(Cl)ccc23)C(=O)NC1(C)C (stereo not drawn)", "inactive"],
  ["Nc1nc2ncc(CCNc3ccc(C(=O)O)cc3)nc2c(=O)[nH]1", "inactive"],
  ["C#CCOc1ccc2ncnc(NCc3cccc(NC(=O)CCl)c3)c2c1", "inactive"],
  ["COc1cccc(Nc2nc(SC)nc(-c3cccc([N+](=O)[O-])c3)c2C#N)c1", "inactive"],
  ["O=S(=O)(Nc1ccc(Cl)c(F)c1)c1ccc(-c2cnc(C3CC3)o2)cc1", "inactive"],
  ["Cn1cccc1-c1nc2c3c(ccc2[nH]1)C(=O)c1ccccc1C3=O", "inactive"],
  ["c1ccc(CCNc2ncnc3[nH]ncc23)cc1", "inactive"],
  ["Cc1cc(N2CCSCC2)nc(NC2CCCC(Nc3ccnc4cc(Cl)ccc34)C2)n1 (stereo not drawn)", "active"],
  ["CC1=C[C@H]2c3c(c(O)c(O)c4oc5ccccc5c(=O)c34)[C@H](c3cc(O)c(O)c4oc5ccccc5c(=O)c34)[C@H]2C(C)(C)C1", "active"],
  ["Cc1nc(/N=C(\\N)NC(=O)Nc2cccc([N+](=O)[O-])c2)sc1C", "inactive"],
  ["NC(=NCCCOc1ccc(Cl)cc1)Nc1ccc(Cl)cc1", "inactive"],
  ["CNC(=O)c1cc(Oc2ccc(NC(=O)Nc3ccc(Cl)c(SC)c3)c(F)c2)ccn1", "inactive"],
  ["C#CCOc1ccc2ncnc(N3CCC(NC(=O)CCl)CC3)c2c1", "inactive"],
  ["CCNC(=O)Oc1ccc(/C(=C(\\C)c2ccc(Cl)cc2)c2ccc(OCCN3CCCCC3)cc2)cc1", "inactive"],
  ["Cn1nc(N)c2cc([C@@H]3Nc4ccc5[nH]ncc5c4[C@H]4C5CCC(C5)[C@@H]34)ccc21 (stereo partly drawn)", "active"],
  ["CCNc1ncnc2c1cnn2C1CCCO1 (stereo not drawn)", "inactive"],
  ["COc1cc2nc(N3CCCC3)nc(NCc3ccccc3)c2cc1OC", "inactive"],
  ["CC(C)c1c(C(=O)c2ccccc2)c(-c2ccccc2)c(-c2ccc(F)cc2)n1CC[C@@H](O)C[C@@H](O)CC(=O)O", "inactive"],
  ["COc1cc(-c2nc3ccccc3[nH]2)ccc1OCc1nnc(-c2ccc(CC(C)C)cc2)o1", "inactive"],
  ["COc1ccc(-c2n[nH]nc2-c2csc3ccccc23)cc1OC", "inactive"],
  ["COc1cc(C2CC(=O)c3ccccc3N2)cc(OC)c1OC (stereo not drawn)", "inactive"],
  ["C[n+]1ccccc1/C=C/c1ccc2cccc(O)c2n1", "inactive"],
  ["Nc1n[nH]c2ccc([C@@H]3Nc4ccc5[nH]ncc5c4[C@H]4C5C=CC(C5)[C@@H]34)cc12 (stereo partly drawn)", "active"]
]}

----------
tested on: SK-MEL-28 melanoma; test: NCI-60 one-dose screen, 48 h; conditions: 10 µM unless noted
The panel holds about 83,000 compounds, 20% with a hit somewhere; the sample as a whole holds those more often. Active and inactive are the calls of the source. The calls were made as follows: active = growth percent below 10; inactive = the rest.
Classes used: active, inactive

{"columns": ["Compound", "System name", "Assigned label"],
 "data": [
  ["CCCCn1c(-c2ccc(C(=O)O/N=C(\\N)c3ccc4ccccc4c3)cc2)nc(-c2ccccc2)c1-c1ccccc1", "SK-MEL-28 melanoma", "inactive"],
  ["CCCCn1c(-c2ccc(C(=O)O/N=C(\\N)c3ccc4c(c3)OCO4)cc2)nc(-c2ccccc2)c1-c1ccccc1", "SK-MEL-28 melanoma", "inactive"],
  ["O=C(N/N=C/c1ccccc1O)c1ccccc1Nc1ccnc(C(F)(F)F)c1", "SK-MEL-28 melanoma", "inactive"],
  ["CCCCCC(=O)Oc1ccc(/C(=C(\\C)c2ccc(OC)cc2)c2ccc(OCCN3CCCCC3)cc2)cc1", "SK-MEL-28 melanoma", "inactive"],
  ["Clc1ccc2c(NCCCCNc3nc(N4CCCCC4)nc4ccccc34)ccnc2c1", "SK-MEL-28 melanoma", "active"],
  ["Cc1ccc2c(C(C[N+](=O)[O-])c3ccccc3)c(-c3ccccc3)[nH]c2c1 (stereo not drawn)", "SK-MEL-28 melanoma", "inactive"],
  ["COc1cc(/C=C/C(=O)Nc2cccnc2Nc2ccc(F)cc2)cc(OC)c1OC", "SK-MEL-28 melanoma", "inactive"],
  ["CC[C@]1(O)C[C@@H]2CN(CCc3c([nH]c4ccccc34)[C@@](C(=O)OC)(c3cc4c(cc3OC)N(C)[C@H]3[C@@](O)(C(N)=O)[C@H](O)[C@]5(CC)[C@@H]6C[C@@H]6CN6CC[C@]43[C@@H]65)C2)C1", "SK-MEL-28 melanoma", "inactive"]
]}

----------
test system: CAKI-1 renal; assay: NCI-60 one-dose screen, 48 h (100 = growth as untreated, 0 = no growth, -100 = all killed); conditions: 10 µM unless noted
About 83,000 compounds went through this panel and 20% of them were active in at least one assay; those are over-represented in the sample as a whole. Active and inactive are the calls of the source. How the source made its calls: active means growth percent below 10; inactive means the rest.
Value kind: growth

{"columns": ["Molecule", "System name", "Endpoint result"],
 "data": [
  ["COc1ccc(-n2nc(C)c3c(Nc4ccc(NC(=O)Nc5cc(C(F)(F)F)ccc5F)cc4)ncnc32)cc1", "CAKI-1 renal", "4.88% (active)"],
  ["Nc1nc2ccc3[nH]ncc3c2c2c1CCCC2", "CAKI-1 renal", "6.67% (active)"],
  ["O=C1/C(=C(/c2ccccc2)N2CCOCC2)Cc2ccccc21", "CAKI-1 renal", "-43.5% (active)"],
  ["CCCCn1c(-c2ccc(C(=O)O/N=C(\\N)c3ccc4ccccc4c3)cc2)nc(-c2ccccc2)c1-c1ccccc1", "CAKI-1 renal", "32.3% (inactive)"],
  ["CCCc1cc(=O)n2c(C(=O)Nc3ccc(F)cc3)c(C(=O)Nc3ccc(F)cc3)sc2n1", "CAKI-1 renal", "44.3% [30 µM] (inactive)"],
  ["Cc1ccc2c(C(C[N+](=O)[O-])c3ccco3)c(-c3ccccc3)[nH]c2c1 (centres undefined)", "CAKI-1 renal", "23.8% (inactive)"],
  ["Nc1ccc(-c2cc3c(Nc4ccc(Oc5cccc(C(F)(F)F)c5)c(Cl)c4)ncnc3s2)cc1", "CAKI-1 renal", "60.3% (inactive)"],
  ["CCC(=O)c1ccc(Cl)s1", "CAKI-1 renal", "102% (inactive)"],
  ["CC1=C[C@H]2c3c(c(O)c(O)c4oc5ccccc5c(=O)c34)[C@H](c3cc(O)c(O)c4oc5ccccc5c(=O)c34)[C@H]2C(C)(C)C1", "CAKI-1 renal", "-24.7% (active)"]
]}
